Biological target: HIV Env six-helix bundle (6HB) structure (Human immunodeficiency virus type 1 group M subtype B, UniProt P04579)
Construct: H9 cells chronically infected with HIV-1 (H9/HIV-1RF); endogenous in cells; host or cells: H9 cells chronically infected with HIV-1 strain RF (Env is made from the virus in the infected cells, not by transfection)
Sequence (P04579 32-519): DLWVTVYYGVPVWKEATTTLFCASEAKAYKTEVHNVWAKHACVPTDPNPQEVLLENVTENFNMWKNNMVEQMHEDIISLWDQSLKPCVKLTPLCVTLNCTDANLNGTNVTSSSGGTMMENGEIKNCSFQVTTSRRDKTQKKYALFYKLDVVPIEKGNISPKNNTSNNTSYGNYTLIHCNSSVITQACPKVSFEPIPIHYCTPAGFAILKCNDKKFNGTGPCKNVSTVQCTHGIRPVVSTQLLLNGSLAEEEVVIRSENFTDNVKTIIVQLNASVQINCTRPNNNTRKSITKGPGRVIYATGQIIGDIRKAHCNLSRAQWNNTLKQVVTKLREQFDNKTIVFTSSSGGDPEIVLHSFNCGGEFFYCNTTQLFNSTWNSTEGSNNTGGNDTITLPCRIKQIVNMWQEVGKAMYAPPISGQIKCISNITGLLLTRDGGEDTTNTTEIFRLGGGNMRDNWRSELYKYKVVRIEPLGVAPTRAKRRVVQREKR
Sequence (P04579 520-865): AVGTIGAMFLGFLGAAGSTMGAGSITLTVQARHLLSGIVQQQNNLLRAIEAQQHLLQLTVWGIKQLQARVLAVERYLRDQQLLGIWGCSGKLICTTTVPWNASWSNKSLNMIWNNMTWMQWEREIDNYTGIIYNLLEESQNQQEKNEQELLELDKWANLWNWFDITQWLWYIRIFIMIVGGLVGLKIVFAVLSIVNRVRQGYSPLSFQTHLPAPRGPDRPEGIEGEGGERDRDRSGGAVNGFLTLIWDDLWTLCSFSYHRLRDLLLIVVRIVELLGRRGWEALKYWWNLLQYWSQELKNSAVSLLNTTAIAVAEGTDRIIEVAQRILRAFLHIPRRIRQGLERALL
Assay: Six-helix bundle (6HB) assay
Format: cell-based, HIV-1 (strain RF)
pIC50: −log10 of the molar value.
measurement_kind: pIC50

Please indicate pIC50 recorded for COc1ccc(-c2nc3c(C(=O)N4CCN(C(CO)c5ccc(Cl)s5)C[C@H]4C)cnn3c(C(F)(F)F)c2C)cc1 (stereo partly drawn)
> 6.00

Give recorded pIC50. "COc1ccc(-c2nc3c(C(=O)N4CCN([C@@H](C)c5ccncc5)C[C@H]4C)cnn3c(C(F)(F)F)c2C)cc1"
> 6.00

Return reported pIC50. Input compound: "COc1ccc(-c2nc3c(C(=O)N4CCN([C@@H](C)c5ccccc5)C[C@H]4C)cnn3c(C(F)(F)F)c2C)cc1"
> 6.00

Entry COc1ccc(-c2nc3c(C(=O)N4CCN(C(CO)c5ccc(OC)cc5OC)C[C@H]4C)cnn3c(C(F)(F)F)c2C)cc1 (stereo partly drawn) needs its pIC50 filled in; supply it.
> 6.00

Given COc1ccc(-c2nc3c(C(=O)N4CCN(C(CO)c5ccc(F)cc5)C[C@H]4C)cnn3c(C(F)(F)F)c2C)cc1 (stereo partly drawn) , respond with its pIC50.
> 6.00

Note down pIC50 recorded for CNC(=O)C(c1ccccc1)N1CCN(C(=O)c2cnn3c(C(F)(F)F)c(C)c(-c4ccc(OC)cc4)nc23)[C@H](C)C1 (stereo partly drawn)
> 6.00

Return value of pIC50 for input COC(=O)C(c1ccccc1)N1CCN(C(=O)c2cnn3c(C(F)(F)F)c(C)c(-c4ccc(OC)cc4)nc23)[C@H](C)C1 (stereo partly drawn) , no commentary.
> 6.00

Give reported pIC50 value for CNCC(c1ccccc1)N1CCN(C(=O)c2cnn3c(C(F)(F)F)c(C)c(-c4ccc(OC)cc4)nc23)[C@H](C)C1 (stereo partly drawn)
> 6.00

For COc1ccc(-c2nc3c(C(=O)N4CCN(C(CN)c5ccccc5)C[C@H]4C)cnn3c(C(F)(F)F)c2C)cc1 (stereo partly drawn) , write its pIC50.
> 6.00

// fetch pIC50 given entry "COc1ccc(-c2nc3c(C(=O)N4CCN([C@@H](CO)c5ccc(Cl)s5)C[C@H]4C)cnn3c(C(F)(F)F)c2C)cc1"
> 6.00

Provide pIC50 value for the following compound: "COc1ccc(-c2nc3c(C(=O)N4CCN([C@@H](CO)c5ccc(C)s5)C[C@H]4C)cnn3c(C(F)(F)F)c2C)cc1"
> 6.00

Entry COc1ccc(-c2nc3c(C(=O)N4CCN(C(CO)c5ccc(Cl)nc5)C[C@H]4C)cnn3c(C(F)(F)F)c2C)cc1 (stereo partly drawn) needs its pIC50 filled in; supply it.
> 6.00

Report pIC50, nothing else, for this compound: COc1ccc(-c2nc3c(C(=O)N4CCN(C(c5ccccc5)C(C)(C)O)C[C@H]4C)cnn3c(C(F)(F)F)c2C)cc1 (stereo partly drawn)
> 6.00

Tell me measured pIC50 for "COc1ccc(-c2nc3c(C(=O)N4CCN([C@H](C)c5cc(F)cc(F)c5)C[C@H]4C)cnn3c(C(F)(F)F)c2C)cc1" please.
> 6.00

Quickly give me recorded pIC50 for "COc1ccc(-c2nc3c(C(=O)N4CCN([C@@H](C)c5ccc(S(C)(=O)=O)cc5)C[C@H]4C)cnn3c(C(F)(F)F)c2C)cc1"
5.00 to 5.96

# return recorded pIC50 for input "COc1ccc(-c2nc3c(C(=O)N4CCN([C@@H](C)c5cccnc5)C[C@H]4C)cnn3c(C(F)(F)F)c2C)cc1"
> 6.00

Look up and report measured pIC50 for this entry: COc1ccc(-c2nc3c(C(=O)N4CCN(C(CO)c5cc(F)cc(F)c5OC)C[C@H]4C)cnn3c(C(F)(F)F)c2C)cc1 (stereo partly drawn)
> 6.00

Tell me its pIC50 given COc1ccc(-c2nc3c(C(=O)N4CCN(C(CO)c5cccc6c5OC(F)(F)O6)C[C@H]4C)cnn3c(C(F)(F)F)c2C)cc1 (stereo partly drawn) as the entry.
> 6.00

Note pIC50 for the compound shown: "COc1ccc(-c2nc3c(C(=O)N4CCN([C@@H](CO)c5ccccc5)C[C@H]4C)cnn3c(C(F)(F)F)c2OC)cc1"
> 6.00

State its pIC50: COc1ccc(-c2nc3c(C(=O)N4CCN(C(CO)c5cccc(CN)c5)C[C@H]4C)cnn3c(C(F)(F)F)c2C)cc1 (stereo partly drawn)
< 5.00

Retrieve pIC50 measured for COc1ccc(-c2nc3c(C(=O)N4CCN(C(CO)c5ccc(C(=O)O)s5)C[C@H]4C)cnn3c(C(F)(F)F)c2C)cc1 (stereo partly drawn) and print it.
5.00 to 5.96

Using the record for "COc1ccc(-c2nc3c(C(=O)N4CCN([C@H](CO)c5cc(C)cs5)C[C@H]4C)cnn3c(C(F)(F)F)c2C)cc1" , state its measured pIC50.
> 6.00

Using known records, supply pIC50 for "COc1ccc(-c2nc3c(C(=O)N4CCN([C@@H](C)c5ccc(C#N)s5)C[C@H]4C)cnn3c(C(F)(F)F)c2C)cc1"
> 6.00

Give a short answer stating reported pIC50 for COc1ccc(-c2nc3c(C(=O)N4CCN(C(C#N)c5ccccc5)C[C@H]4C)cnn3c(C(F)(F)F)c2C)cc1 (stereo partly drawn) .
> 6.00
